List of MIC values.
Tested on: Streptococcus
Experiment: Antibacterial activity against Streptococcus gamma 32206 by CLSI agar microdilution method
Type: functional
test readout: MIC (µg/mL)

# structure as smiles, readout units, value
measured = [
    ("CN[C@H](CC(C)C)C(=O)N[C@H]1C(=O)N[C@@H](CC(N)=O)C(=O)N[C@H]2C(=O)N[C@H]3C(=O)N[C@H](C(=O)N[C@@H](C(=O)O)c4cc(O)cc(O)c4-c4cc3ccc4O)[C@H](O[C@H]3C[C@](C)(N)[C@H](O)[C@H](C)O3)c3ccc(c(Cl)c3)Oc3cc2cc(c3O[C@@H]2O[C@H](CO)[C@@H](O)[C@H](O)[C@H]2O[C@H]2C[C@](C)(NCc3cccc4ccccc34)[C@H](O)[C@H](C)O2)Oc2ccc(cc2Cl)[C@H]1O", "µg/mL", 6.25),
    ("CN[C@H](CC(C)C)C(=O)N[C@H]1C(=O)N[C@@H](CC(N)=O)C(=O)N[C@H]2C(=O)N[C@H]3C(=O)N[C@H](C(=O)N[C@@H](C(=O)O)c4cc(O)cc(O)c4-c4cc3ccc4O)[C@H](O[C@H]3C[C@](C)(N)[C@H](O)[C@H](C)O3)c3ccc(c(Cl)c3)Oc3cc2cc(c3O[C@@H]2O[C@H](CO)[C@@H](O)[C@H](O)[C@H]2O[C@H]2C[C@](C)(NCc3cc(F)c(F)cc3F)[C@H](O)[C@H](C)O2)Oc2ccc(cc2Cl)[C@H]1O", "µg/mL", 12.5),
]

* * *

System: Streptococcus
Assay: Antibacterial activity against Streptococcus gamma 32206 by CLSI agar microdilution method
Assay type: functional
Entries and their measured MIC follow.

# structure as smiles, target, readout units, MIC
rows = [
    ("CCCCCCN[C@@]1(C)C[C@H](O[C@H]2[C@H](Oc3c4cc5cc3Oc3ccc(cc3Cl)[C@@H](O[C@H]3C[C@](C)(N)[C@H](O)[C@H](C)O3)[C@@H]3NC(=O)[C@H](NC(=O)[C@@H]5NC(=O)[C@H](CC(N)=O)NC(=O)[C@H](NC(=O)[C@@H](CC(C)C)NC)[C@H](O)c5ccc(c(Cl)c5)O4)c4ccc(O)c(c4)-c4c(O)cc(O)cc4[C@H](C(=O)O)NC3=O)O[C@H](CO)[C@@H](O)[C@@H]2O)O[C@@H](C)[C@H]1O", "Streptococcus", "µg/mL", 1.56),
    ("CCCCCN[C@@]1(C)C[C@H](O[C@H]2[C@H](Oc3c4cc5cc3Oc3ccc(cc3Cl)[C@@H](O[C@H]3C[C@](C)(N)[C@H](O)[C@H](C)O3)[C@@H]3NC(=O)[C@H](NC(=O)[C@@H]5NC(=O)[C@H](CC(N)=O)NC(=O)[C@H](NC(=O)[C@@H](CC(C)C)NC)[C@H](O)c5ccc(c(Cl)c5)O4)c4ccc(O)c(c4)-c4c(O)cc(O)cc4[C@H](C(=O)O)NC3=O)O[C@H](CO)[C@@H](O)[C@@H]2O)O[C@@H](C)[C@H]1O", "Streptococcus", "µg/mL", 0.78),
]

* * *

System: Enterococcus faecalis
Test: microbe, parasite or virus in culture
Type: functional
Conditions: ATCC 29212
Description: Antibacterial activity against vancomycin-sensitive Enterococcus faecalis ATCC 29212 by CLSI agar microdilution method

# molecule, target, MIC
data = [
    ("CN[C@H](CC(C)C)C(=O)N[C@H]1C(=O)N[C@@H](CC(N)=O)C(=O)N[C@H]2C(=O)N[C@H]3C(=O)N[C@H](C(=O)N[C@@H](C(=O)O)c4cc(O)cc(O)c4-c4cc3ccc4O)[C@H](O[C@H]3C[C@](C)(N)[C@H](O)[C@H](C)O3)c3ccc(c(Cl)c3)Oc3cc2cc(c3O[C@@H]2O[C@H](CO)[C@@H](O)[C@H](O)[C@H]2O[C@H]2C[C@](C)(NCc3ccc(Br)cc3)[C@H](O)[C@H](C)O2)Oc2ccc(cc2Cl)[C@H]1O", "Enterococcus faecalis", "0.5 µg/mL"),
    ("CN[C@H](CC(C)C)C(=O)N[C@H]1C(=O)N[C@@H](CC(N)=O)C(=O)N[C@H]2C(=O)N[C@H]3C(=O)N[C@H](C(=O)N[C@@H](C(=O)O)c4cc(O)cc(O)c4-c4cc3ccc4O)[C@H](O[C@H]3C[C@](C)(N)[C@H](O)[C@H](C)O3)c3ccc(c(Cl)c3)Oc3cc2cc(c3O[C@@H]2O[C@H](CO)[C@@H](O)[C@H](O)[C@H]2O[C@H]2C[C@](C)(NCc3ccccc3Br)[C@H](O)[C@H](C)O2)Oc2ccc(cc2Cl)[C@H]1O", "Enterococcus faecalis", "0.25 µg/mL"),
    ("CN[C@H](CC(C)C)C(=O)N[C@H]1C(=O)N[C@@H](CC(N)=O)C(=O)N[C@H]2C(=O)N[C@H]3C(=O)N[C@H](C(=O)N[C@H](C(=O)O)c4cc(O)cc(O)c4-c4cc3ccc4O)[C@H](O)c3ccc(c(Cl)c3)Oc3cc2cc(c3O[C@@H]2O[C@H](CO)[C@@H](O)[C@H](O)[C@H]2O[C@H]2C[C@](C)(N)[C@H](O)[C@H](C)O2)Oc2ccc(cc2Cl)[C@H]1O.Cl [VANCOMYCIN HYDROCHLORIDE]", "Enterococcus faecalis", "1 µg/mL"),
]
